The reported measurements were obtained from the supplement of paper PMC4022240.

- Tgt: anti-H3K4me3 antibody ab8580
- Assay Info: peptide microarray binding signal (635 nm), min-max normalized on array (fraction of array maximum); higher = stronger binding
- Applied Conditions: peptide region: Unmod H4 variant; binder concentration: 1:2,000 dilution
Use y when the recorded peptide microarray binding signal is no lower than 0.004; use n when it is lower.

Answered cases to consult:
> print(dat)
                                     binder  group
1  YEETRGVLKVFLE [Unmod H4 variant Y E E T R G V L K V F L E]      n
2  VLRDNIQGITKPA [Unmod H4 variant V L R D N I Q G I T K P A]      y
3  SGRGKGGKGLGKG [Unmod H4 variant S G R G K G G K G L G K G]      n
4  ISGLIYEETRGVL [Unmod H4 variant I S G L I Y E E T R G V L]      n

Is peptide microarray binding signal at least 0.004? Consider FLENVIRDAVTYT [Unmod H4 variant F L E N V I R D A V T Y T] n

How about this binder: GGKGLGKGGAKRH [Unmod H4 variant G G K G L G K G G A K R H] n

How about this binder: IQGITKPAIRRLA [Unmod H4 variant I Q G I T K P A I R R L A] y

How about this binder: GKGGAKRHRKVLR [Unmod H4 variant G K G G A K R H R K V L R] n
